Assay method text: Inhibition of HIV-1 HXB2 gp41 N-terminal heptad repeat-mediated fusion between infected HL2/3 cells to target TZM-bl cells after 6 hrs by luciferase reporter gene assay
Reported log10 IC50 is given for each of the following substances.
Reported metric: log10 IC50 (log10 of the value in nM)

substance=H-MTWEEWDKKIEEYTKKIEELI-OH observed_value=0.34
substance=H-MTWEAWDRAIAEYAARIEALIRAAQEQQEKNEAALREL-OH observed_value=-0.07
substance=H-WEAWDRAIAEYAARIEALIRAAQEQQEKNEAALREL-OH observed_value=-0.47
substance=H-MTWEEWDKKIEEYTKKIEELIKKS-OH observed_value=0.36
substance=H-TTWEEWDKKIEEYTKKIEELIKKS-OH observed_value=1.26
substance=H-MTWEAWDRAIAEYAARIEALIR-OH observed_value=1.77
